Just for reference, PubChem BioAssay AID1963830 is where these values come from.

tested on: 922993-354-T-J3-PDC complex spheroid viability; assay: Anticancer human tumor 922993-354-T-J3-PDC patient-derived endometrial carcinoma cell line growth inhibition [POLQ]; conditions: second compound 0.1 µM; first compound 0.00316 µM; hits give low values
QUANTITY_MEASURED: viability, T/C (%)
Dear colleague, please return just the value in %, with no unit written.

Examples with their reported viability, T/C follow.
{"COMPOUND": "COc1cccc(OCCCN)c1-c1cc(Nc2cnc(C#N)cn2)n[nH]1 + Nc1ccc(C#CCN(C(=O)Cc2ncc(C(F)(F)F)cc2C(F)(F)F)c2ccc(F)cc2)nn1", "SUBJECT_OF_TEST": "922993-354-T-J3-PDC complex spheroid viability", "OUTPUT_UNIT": "%", "viability, T/C": 104}
{"COMPOUND": "COc1cccc(OCCCN)c1-c1cc(Nc2cnc(C#N)cn2)n[nH]1 + Cc1cccc(N(C)C(=O)C2C(O)CCN2c2nc(C)cc(C(F)(F)F)c2C#N)c1", "SUBJECT_OF_TEST": "922993-354-T-J3-PDC complex spheroid viability", "OUTPUT_UNIT": "%", "viability, T/C": 104}
{"COMPOUND": "C=CCn1c(=O)c2cnc(Nc3ccc(N4CCN(C)CC4)cc3)nc2n1-c1cccc(C(C)(C)O)n1 + COC1C(OC(N)=O)C(O)C(Oc2ccc3c(O)c(NC(=O)c4ccc(O)c(CC=C(C)C)c4)c(=O)oc3c2C)OC1(C)C", "SUBJECT_OF_TEST": "922993-354-T-J3-PDC complex spheroid viability", "OUTPUT_UNIT": "%", "viability, T/C": 94}
{"COMPOUND": "CCc1c2c(nc3ccc(O)cc13)-c1cc3c(c(=O)n1C2)COC(=O)[C@]3(O)CC + Cc1cccc(N(C)C(=O)C2C(O)CCN2c2nc(C)cc(C(F)(F)F)c2C#N)c1", "SUBJECT_OF_TEST": "922993-354-T-J3-PDC complex spheroid viability", "OUTPUT_UNIT": "%", "viability, T/C": 91.8}

In the following, a different compound is considered.
## Input I am curious: what viability, T/C value has been reported for CCc1c2c(nc3ccc(O)cc13)-c1cc3c(c(=O)n1C2)COC(=O)[C@]3(O)CC + Nc1ccc(C#CCN(C(=O)Cc2ncc(C(F)(F)F)cc2C(F)(F)F)c2ccc(F)cc2)nn1 ?
## Output 100

* * *

The entries below are paired with their reported viability, T/C.
test system: 922993-354-T-J3-PDC complex spheroid viability; experiment: Anticancer human tumor 922993-354-T-J3-PDC cell line growth inhibition [POLQ]; conditions: second compound 0.316 µM; first compound 0.001 µM; hits give low values;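 further: spheroids exposed to the agents for one week; 100% = DMSO vehicle control wells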
Just the number please, in %, no unit attached.

{"MOLECULE": "CC[C@@]1(O)C(=O)OCc2c1cc1n(c2=O)Cc2cc3c(CN(C)C)c(O)ccc3nc2-1 + Cc1cccc(N(C)C(=O)C2C(O)CCN2c2nc(C)cc(C(F)(F)F)c2C#N)c1", "QUANTITY_MEASURED": "viability, T/C", "RECORDED_NUMBER": 104}
{"MOLECULE": "Cn1ncnc1[C@H]1c2n[nH]c(=O)c3cc(F)cc(c23)N[C@@H]1c1ccc(F)cc1 + COC1C(OC(N)=O)C(O)C(Oc2ccc3c(O)c(NC(=O)c4ccc(O)c(CC=C(C)C)c4)c(=O)oc3c2C)OC1(C)C", "QUANTITY_MEASURED": "viability, T/C", "RECORDED_NUMBER": 107}
{"MOLECULE": "CC[C@@]1(O)C(=O)OCc2c1cc1n(c2=O)Cc2cc3c(CN(C)C)c(O)ccc3nc2-1 + COC1C(OC(N)=O)C(O)C(Oc2ccc3c(O)c(NC(=O)c4ccc(O)c(CC=C(C)C)c4)c(=O)oc3c2C)OC1(C)C", "QUANTITY_MEASURED": "viability, T/C", "RECORDED_NUMBER": 96.6}
{"MOLECULE": "Cn1ncnc1[C@H]1c2n[nH]c(=O)c3cc(F)cc(c23)N[C@@H]1c1ccc(F)cc1 + Cc1cccc(N(C)C(=O)C2C(O)CCN2c2nc(C)cc(C(F)(F)F)c2C#N)c1", "QUANTITY_MEASURED": "viability, T/C", "RECORDED_NUMBER": 106}
{"MOLECULE": "CC[C@@]1(O)C(=O)OCc2c1cc1n(c2=O)Cc2cc3c(CN(C)C)c(O)ccc3nc2-1 + Nc1ccc(C#CCN(C(=O)Cc2ncc(C(F)(F)F)cc2C(F)(F)F)c2ccc(F)cc2)nn1", "QUANTITY_MEASURED": "viability, T/C", "RECORDED_NUMBER": 98.1}

// switching to the query molecule
## Input Consider the molecule shown here: Cn1ncnc1[C@H]1c2n[nH]c(=O)c3cc(F)cc(c23)N[C@@H]1c1ccc(F)cc1 + Nc1ccc(C#CCN(C(=O)Cc2ncc(C(F)(F)F)cc2C(F)(F)F)c2ccc(F)cc2)nn1 What is its recorded viability, T/C?
## Output 106
